Target: PPARγ (Homo sapiens)
Sequence (P37231 232-505 limits assumed): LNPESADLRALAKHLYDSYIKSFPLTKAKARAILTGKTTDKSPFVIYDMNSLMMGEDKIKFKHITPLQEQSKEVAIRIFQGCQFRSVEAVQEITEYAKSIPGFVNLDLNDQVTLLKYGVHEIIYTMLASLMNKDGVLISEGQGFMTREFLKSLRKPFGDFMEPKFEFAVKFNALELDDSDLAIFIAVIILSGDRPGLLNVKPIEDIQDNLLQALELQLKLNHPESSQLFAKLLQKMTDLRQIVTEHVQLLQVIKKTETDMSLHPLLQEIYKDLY
PROPERTY_NAME: pIC50
Note on pIC50: it is the negative log10 of concentration, concentration in mol/L.

[Q] # returns recorded pIC50 (system: PPARγ (Homo sapiens)) for O=C(Nc1ccccc1)c1cc([N+](=O)[O-])ccc1Cl
[A] 7.61

* * *

Target: PPARα (Homo sapiens, UniProt Q07869)
Construct: gene PPARA
Sequence (Q07869 196-468 limits assumed): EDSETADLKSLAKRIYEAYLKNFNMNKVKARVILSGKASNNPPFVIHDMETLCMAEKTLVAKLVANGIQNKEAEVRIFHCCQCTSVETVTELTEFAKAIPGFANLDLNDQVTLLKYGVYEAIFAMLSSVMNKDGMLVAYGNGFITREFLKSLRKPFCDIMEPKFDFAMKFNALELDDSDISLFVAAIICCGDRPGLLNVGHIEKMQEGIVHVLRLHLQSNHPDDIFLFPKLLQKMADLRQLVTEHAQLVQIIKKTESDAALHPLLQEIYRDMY
Experiment: TR-FRET competitive binding assay; also ultrafiltration LC-MS and cell transactivation
PROPERTY_NAME: pIC50
Answer as the number alone; pIC50 is minus log10 of concentration in mol/L.

[Q] # input molecule: COc1ccc(-c2cc(=O)c3c(O)c(OC)c(O)cc3o2)cc1OC ; wanted: its pIC50
[A] 5.93
